- Study System: PARP2 (recombinant) (Homo sapiens, UniProt Q9UGN5)
- Construct: recombinant
- Sequence (Q9UGN5 whole entry): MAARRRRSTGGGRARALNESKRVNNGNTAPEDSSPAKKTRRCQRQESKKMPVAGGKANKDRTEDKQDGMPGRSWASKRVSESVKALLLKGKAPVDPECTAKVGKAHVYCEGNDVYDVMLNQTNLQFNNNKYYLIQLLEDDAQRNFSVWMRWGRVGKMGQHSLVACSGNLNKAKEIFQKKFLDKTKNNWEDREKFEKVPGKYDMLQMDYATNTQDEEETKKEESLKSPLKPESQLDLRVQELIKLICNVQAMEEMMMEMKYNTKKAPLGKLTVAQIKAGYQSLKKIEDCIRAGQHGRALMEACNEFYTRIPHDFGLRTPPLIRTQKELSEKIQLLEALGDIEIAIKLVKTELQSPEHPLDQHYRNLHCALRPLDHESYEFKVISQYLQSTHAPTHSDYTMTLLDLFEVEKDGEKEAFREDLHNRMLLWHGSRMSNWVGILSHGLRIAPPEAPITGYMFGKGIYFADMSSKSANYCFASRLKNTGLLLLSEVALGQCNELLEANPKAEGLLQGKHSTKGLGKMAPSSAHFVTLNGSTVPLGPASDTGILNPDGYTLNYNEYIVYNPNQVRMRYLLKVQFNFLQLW
- Test Summary: fluorescence polarization competition binding
Property Measured: IC50 (nM)
The response must be a number in nM with no trailing unit.

Which IC50 is reported with PARP2 (recombinant) (Homo sapiens, UniProt Q9UGN5) for this entry: C#CCCC1(CCC(=O)Nc2cnc(N3CCN(C(=O)c4cccc(Cc5n[nH]c(=O)c6ccccc56)c4)CC3)c(C#N)c2)N=N1 [PARPYnD] ? 6

FYI, the data here is from paper PMC7146755.
